- Assay Details: Liver microsomal stability (human)
- Format: in vitro ADME
- Condition Label: human liver microsomes
List of Intrinsic clearance rate in vivo Clint In Vitro values.
Response body: numeric value in mL/min/gprot, unit text excluded.

Would you please look over these solved cases?
# Compound, Result Unit, Measured Value
records = [
    ("CN(C)CC(=O)N1CC=C(c2cnc(NCc3c(F)ccc4c3CCO4)n3cnnc23)CC1 [E-Y54]", "mL/min/gprot", 2.46),
    ("CN(C)CC(=O)N1CC=C(c2cnc(NCc3c(F)ccc4c3CCO4)n3cnnc23)CC1 [E-Y54-H]", "mL/min/gprot", 4.39),
    ("O=C(CN1CCOCC1)N1CC=C(c2cnc(NCc3c(F)ccc4c3CCO4)n3cnnc23)CC1", "mL/min/gprot", 33.0),
]

Q: Entry CS(=O)(=O)N1CC=C(c2cnc(NCc3c(F)ccc4c3CCO4)n3cnnc23)CC1 has what Intrinsic clearance rate in vivo Clint In Vitro?
Result: 22.6

Q: Query O=C(C1CCOCC1)N1CC=C(c2cnc(NCc3c(F)ccc4c3CCO4)n3cnnc23)CC1 next
Result: 19.1

====

- Assay Details: Liver microsomal stability (rat)
- Assay type: in vitro ADME
- Condition Label: rat, microsomes, pH 7.4, Half life T-half
Recorded Endpoint: half-life (h)
Response body: numeric value in h, unit text excluded.

Q: Entry CN1CC=C(c2cnc(NCc3c(F)ccc4c3CCO4)n3cnnc23)CC1 [SL-E23] has what half-life?
Result: 1

====

Lab note: IC50 readings collected with PRC2 enzyme (Homo sapiens (Human), UniProt O75530) for the following compounds.
Sequence (O75530 whole entry): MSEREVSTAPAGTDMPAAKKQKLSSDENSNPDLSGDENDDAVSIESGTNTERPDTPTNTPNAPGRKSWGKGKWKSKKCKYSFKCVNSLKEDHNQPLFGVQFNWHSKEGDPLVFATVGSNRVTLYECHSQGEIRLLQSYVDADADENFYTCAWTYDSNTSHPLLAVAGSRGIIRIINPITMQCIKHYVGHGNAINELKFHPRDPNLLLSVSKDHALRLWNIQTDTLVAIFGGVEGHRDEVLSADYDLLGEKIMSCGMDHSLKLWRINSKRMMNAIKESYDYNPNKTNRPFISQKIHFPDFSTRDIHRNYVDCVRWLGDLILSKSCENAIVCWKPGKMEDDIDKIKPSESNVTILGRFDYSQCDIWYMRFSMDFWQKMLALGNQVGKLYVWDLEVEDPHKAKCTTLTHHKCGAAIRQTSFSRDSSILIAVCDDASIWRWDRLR
Sequence (Q15910 whole entry partner): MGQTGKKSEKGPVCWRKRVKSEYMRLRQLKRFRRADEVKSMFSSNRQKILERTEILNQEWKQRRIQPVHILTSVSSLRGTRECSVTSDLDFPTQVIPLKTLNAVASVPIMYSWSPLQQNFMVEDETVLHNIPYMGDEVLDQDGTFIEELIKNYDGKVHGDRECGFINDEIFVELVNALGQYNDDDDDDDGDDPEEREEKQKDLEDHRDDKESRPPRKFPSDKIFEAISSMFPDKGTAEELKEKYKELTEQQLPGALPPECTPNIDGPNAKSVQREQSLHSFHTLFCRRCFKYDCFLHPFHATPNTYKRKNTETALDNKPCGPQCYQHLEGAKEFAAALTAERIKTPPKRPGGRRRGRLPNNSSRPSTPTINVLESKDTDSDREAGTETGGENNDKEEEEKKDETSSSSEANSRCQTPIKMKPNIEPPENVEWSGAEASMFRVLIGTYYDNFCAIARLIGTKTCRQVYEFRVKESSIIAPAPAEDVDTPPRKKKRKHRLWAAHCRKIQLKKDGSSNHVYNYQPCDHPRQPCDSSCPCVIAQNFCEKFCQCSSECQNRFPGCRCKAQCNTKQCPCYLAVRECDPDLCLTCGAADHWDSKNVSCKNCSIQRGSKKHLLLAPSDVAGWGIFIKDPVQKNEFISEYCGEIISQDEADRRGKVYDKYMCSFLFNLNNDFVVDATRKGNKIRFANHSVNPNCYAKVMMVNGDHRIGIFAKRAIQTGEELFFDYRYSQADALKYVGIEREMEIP
Sequence (Q15022 whole entry partner): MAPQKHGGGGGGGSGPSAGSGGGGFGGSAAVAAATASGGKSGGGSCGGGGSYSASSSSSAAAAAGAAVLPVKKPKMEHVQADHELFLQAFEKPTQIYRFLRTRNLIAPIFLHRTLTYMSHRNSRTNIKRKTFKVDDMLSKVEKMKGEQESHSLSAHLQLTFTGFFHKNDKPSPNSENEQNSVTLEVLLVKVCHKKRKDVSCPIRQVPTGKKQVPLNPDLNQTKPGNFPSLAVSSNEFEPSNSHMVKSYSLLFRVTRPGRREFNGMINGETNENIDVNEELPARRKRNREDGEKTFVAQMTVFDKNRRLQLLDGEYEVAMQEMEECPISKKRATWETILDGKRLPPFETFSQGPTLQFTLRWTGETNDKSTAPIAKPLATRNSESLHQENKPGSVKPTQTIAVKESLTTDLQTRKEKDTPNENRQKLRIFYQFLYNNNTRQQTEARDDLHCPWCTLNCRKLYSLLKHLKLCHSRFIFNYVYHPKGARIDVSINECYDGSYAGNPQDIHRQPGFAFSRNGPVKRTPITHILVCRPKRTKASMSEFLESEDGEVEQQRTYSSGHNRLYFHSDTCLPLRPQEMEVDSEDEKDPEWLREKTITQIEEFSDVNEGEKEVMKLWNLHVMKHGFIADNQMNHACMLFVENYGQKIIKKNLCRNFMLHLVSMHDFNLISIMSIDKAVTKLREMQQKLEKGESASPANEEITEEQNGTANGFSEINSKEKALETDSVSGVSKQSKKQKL
Response body: numeric value in nM, unit text excluded.

Would you please look over these solved cases?
# Compound, Experimental System, Result Unit, IC50
measured = [
    ("CCNC(=S)N1CC=C(c2cnc(NCc3c(F)ccc4c3CCO4)n3cnnc23)CC1 [E-Y19]", "PRC2 enzyme (Homo sapiens (Human), UniProt O75530)", "nM", 9.3),
    ("O=C(OCc1ccccc1)N1CC=C(c2cnc(NCc3c(F)ccc4c3CCO4)n3cnnc23)CC1 [E-Y44]", "PRC2 enzyme (Homo sapiens (Human), UniProt O75530)", "nM", 85.8),
    ("Cc1cc(C(=O)N2CC=C(c3cnc(NCc4c(F)ccc5c4CCO5)n4cnnc34)CC2)n(C)n1 [E-Y42]", "PRC2 enzyme (Homo sapiens (Human), UniProt O75530)", "nM", 4.8),
    ("CC1(C)C=C(c2cnc(NCc3c(F)ccc4c3CCO4)n3cnnc23)CCO1 [SL-ZYE-120]", "PRC2 enzyme (Homo sapiens (Human), UniProt O75530)", "nM", 3.6),
    ("O=C(CN1CCOCC1)N1CC=C(c2cnc(NCc3c(F)ccc4c3CCO4)n3cnnc23)CC1 [E-Y40]", "PRC2 enzyme (Homo sapiens (Human), UniProt O75530)", "nM", 16.1),
]

Q: Entry O=C(C1CC1)N1CC=C(c2cnc(NCc3c(F)ccc4c3CCO4)n3cnnc23)CC1 [SL-ZYE-162] has what IC50?
Result: 5.2

Q: Query CN1CCC(c2cnc(NCc3c(F)ccc4c3CCO4)n3cnnc23)=CC1=O [SL-E24] next
Result: 3.9

Q: Query O=C(c1ccccc1)N1CC=C(c2cnc(NCc3ccco3)n3cnnc23)CC1 [E-Y21] next
Result: 351

Q: Query CS(=O)(=O)N1CC=C(c2cnc(NCc3c(F)ccc4c3CCO4)n3cnnc23)CC1 [E-Y13] next
Result: 19

Q: Query CCS(=O)(=O)N1CC=C(c2cnc(NCc3c(F)ccc4c3CCO4)n3cnnc23)CC1 [SL-ZYE-144] next
Result: 3.5

====

- Test system: SU-DHL-4 cells
- Assay Details: Growth inhibition of SU-DHL-4 cells in a long term (11 days), CellTiter-Glo
- Assay type: cell-based, Human
- Condition Label: Homo sapiens, 264 h; SU-DHL-4, 11 days; read-out: SU-DHL-4 (11 days) IC50
// assign True if IC50 falls strictly below 4 nM, else False (ties count as False)

Consider the worked cases shown below.
# Compound, Class Assignment
measured = [
    ("CC(=O)N1CC=C(c2cnc(NCc3c(F)ccc4c3CCO4)n3cnnc23)CC1 [E-Y15]", "True"),
    ("CC(C)S(=O)(=O)N1CC=C(c2cnc(NCc3c(F)ccc4c3CCO4)n3cnnc23)CC1 [SL-ZYE-145]", "True"),
    ("O=C(C1CC1)N1CC=C(c2cnc(NCc3c(F)ccc4c3CCO4)n3cnnc23)CC1 [SL-ZYE-162]", "True"),
    ("CN1CCC(c2cnc(NCc3c(F)ccc4c3CCO4)n3cnnc23)=CC1=O [SL-E24]", "True"),
    ("Fc1ccc2c(c1CNc1ncc(C3=CCCOCC3)c3nncn13)CCO2 [SL-ZYE-07]", "False"),
]

Q: Given the entry CCS(=O)(=O)N1CC=C(c2cnc(NCc3c(F)ccc4c3CCO4)n3cnnc23)CC1 [SL-ZYE-144] , would its reported IC50 be below 4 nM?
Result: True

====

- Assay Details: Liver microsomal stability (rat)
- Format: in vitro ADME
- Condition Label: rat liver microsomes
List of Intrinsic clearance rate in vivo Clint In Vitro values.
Response body: numeric value in mL/min/gprot, unit text excluded.

Would you please look over these solved cases?
# Sample Smiles, Measured Value
rows = [
    ("Fc1ccc2c(c1CNc1ncc(C3=CCOCC3)c3nncn13)CCO2", 35.2),
    ("CC(=O)N1CC=C(c2cnc(NCc3c(F)ccc4c3CCO4)n3cnnc23)CC1", 144),
    ("O=C(C1CCOCC1)N1CC=C(c2cnc(NCc3c(F)ccc4c3CCO4)n3cnnc23)CC1", 99.6),
    ("Fc1ccc2c(c1CNc1ncc(C3CCOCC3)c3nncn13)CCO2", 15.1),
]

# evaluate next
Q: Entry CC(=O)N1CCC(c2cnc(NCc3c(F)ccc4c3CCO4)n3cnnc23)CC1 has what Intrinsic clearance rate in vivo Clint In Vitro?
Result: 24.2

====

- Assay Details: Liver microsomal stability (mouse)
- Type: in vitro ADME
- Condition Label: mouse liver microsomes
List of Liver clearance rate Clint Hep In Vivo Extpl values.
Response body: numeric value in mL/min, unit text excluded.

Would you please look over these solved cases?
# Molecule, Measured Value
data = [
    ("CC(=O)N1CC=C(c2cnc(NCc3c(F)ccc4c3CCO4)n3cnnc23)CC1", 1.94),
    ("O=C(C1CCOCC1)N1CC=C(c2cnc(NCc3c(F)ccc4c3CCO4)n3cnnc23)CC1", 2.35),
]

Q: Entry Fc1ccc2c(c1CNc1ncc(C3=CCOCC3)c3nncn13)CCO2 has what Liver clearance rate Clint Hep In Vivo Extpl?
Result: 1.19

Q: Query CN(C)CC(=O)N1CC=C(c2cnc(NCc3c(F)ccc4c3CCO4)n3cnnc23)CC1 [E-Y54-H] next
Result: 0.862

Q: Query CC(=O)N1CCC(c2cnc(NCc3c(F)ccc4c3CCO4)n3cnnc23)CC1 next
Result: 0.705

Q: Query O=C(CN1CCOCC1)N1CC=C(c2cnc(NCc3c(F)ccc4c3CCO4)n3cnnc23)CC1 next
Result: 2.66

Q: Query CN(C)CC(=O)N1CC=C(c2cnc(NCc3c(F)ccc4c3CCO4)n3cnnc23)CC1 [E-Y54] next
Result: 1.69

Q: Query CS(=O)(=O)N1CC=C(c2cnc(NCc3c(F)ccc4c3CCO4)n3cnnc23)CC1 next
Result: 1.00

Q: Query Fc1ccc2c(c1CNc1ncc(C3CCOCC3)c3nncn13)CCO2 next
Result: 0.841

====

- Assay Details: Liver microsomal stability (human)
- Type: in vitro ADME
- Condition Label: human, pH 7.4, Metabolic bioavailability MF %
Recorded Endpoint: bioavailability

Q: Entry CN1CC=C(c2cnc(NCc3c(F)ccc4c3CCO4)n3cnnc23)CC1 has what bioavailability?
Result: 65%

====

- Test system: SU-DHL-4 cells
- Assay Details: Growth inhibition of SU-DHL-4 cells in a long term (11 days), CellTiter-Glo
- Format: cell-based, Human
- Condition Label: Homo sapiens, SU-DHL-4, 264 h, read-out: SU-DHL-4 (11 days) IC50
Recorded Endpoint: pIC50
In textbook form, pIC50 equals minus log to base ten of the concentration in mol/L.

Q: Enter reported pIC50 observed with SU-DHL-4 cells for CS(=O)(=O)c1ccc(-c2cnc(NCc3ccco3)n3cnnc23)cc1 [EED226, reference compound]
Result: 7.02

====

List of Metabolic bioavailability MF % values.
- Assay Details: Liver microsomal stability (rat)
- Format: in vitro ADME
- Condition Label: rat liver microsomes
Response body: numeric value in %, unit text excluded.

Would you please look over these solved cases?
# Compound, Metabolic bioavailability MF % [%]
records = [
    ("CN(C)CC(=O)N1CC=C(c2cnc(NCc3c(F)ccc4c3CCO4)n3cnnc23)CC1 [E-Y54-H]", 82.4),
    ("O=C(CN1CCOCC1)N1CC=C(c2cnc(NCc3c(F)ccc4c3CCO4)n3cnnc23)CC1", 25.1),
    ("CS(=O)(=O)N1CC=C(c2cnc(NCc3c(F)ccc4c3CCO4)n3cnnc23)CC1", 53.9),
]

Q: Entry O=C(C1CCOCC1)N1CC=C(c2cnc(NCc3c(F)ccc4c3CCO4)n3cnnc23)CC1 has what Metabolic bioavailability MF %?
Result: 30.9

Q: Query CN(C)CC(=O)N1CC=C(c2cnc(NCc3c(F)ccc4c3CCO4)n3cnnc23)CC1 [E-Y54] next
Result: 66.6

Q: Query CC(=O)N1CC=C(c2cnc(NCc3c(F)ccc4c3CCO4)n3cnnc23)CC1 next
Result: 23.6

Q: Query Fc1ccc2c(c1CNc1ncc(C3CCOCC3)c3nncn13)CCO2 next
Result: 74.7

Q: Query CC(=O)N1CCC(c2cnc(NCc3c(F)ccc4c3CCO4)n3cnnc23)CC1 next
Result: 64.8

Q: Query Fc1ccc2c(c1CNc1ncc(C3=CCOCC3)c3nncn13)CCO2 next
Result: 55.8
